System: SUDHL10
assay-explanation: Induction of cytotoxicity (Assay 6), SUDHL10
conditions-used: read-out: Cytotox SUDHL10 IC50 (median); SUDHL10 cells, 5 hours, CellTiter-Glo
Hi! Could you tag entries with IC50 below 9 µM as Yes, and those at or above as No? Much appreciated.

Lookup: Quick check: does Cc1c2c(nn1C)COCCCCn1c(C(=O)O)c(CCCOc3cccc4ccccc34)c3ccc(Cl)c-2c31 (single isomer, unassigned; enantiomer 1) [Example 26] have IC50 under 9 µM?
Found: Yes

Lookup: Quick check: does Cc1c2c(nn1C)CN(CC(F)(F)F)CCCCn1c(C(=O)O)c(CCCOc3cccc4cc(F)ccc34)c3ccc(Cl)c-2c31 (single isomer, unassigned; enantiomer 2) [Example 60] have IC50 under 9 µM?
Found: No

Lookup: Quick check: does Cc1c2c(nn1C)N(C)CCCCCn1c(C(=O)O)c(CCCOc3cccc4cc(F)ccc34)c3ccc(Cl)c-2c31 [Example 75] have IC50 under 9 µM?
Found: Yes

Lookup: Quick check: does Cc1c2c(nn1CCCN1CCN(C)CC1)COCCCCn1c(C(=O)O)c(CCCOc3cccc4ccccc34)c3ccc(Cl)c-2c31 (single isomer, unassigned; enantiomer 1) [Example 49] have IC50 under 9 µM?
Found: Yes

Lookup: Quick check: does Cc1c2c(nn1C)OCCCCCn1c(C(=O)O)c(CCCOc3cccc4cc(F)ccc34)c3ccc(Cl)c-2c31 (single isomer, unassigned; enantiomer 2) [Example 85] have IC50 under 9 µM?
Found: No

Lookup: Quick check: does Cc1c2c(nn1C)COCC1CCC1Cn1c(C(=O)O)c(CCCOc3cccc4ccccc34)c3ccc(Cl)c-2c31 (single isomer, unassigned; stereoisomer 1) [Example 63] have IC50 under 9 µM?
Found: Yes

Lookup: Quick check: does Cc1c2c(nn1C)N(C)CCCCCn1c(C(=O)O)c(CCCOc3cccc4ccccc34)c3ccc(Cl)c-2c31 (single isomer, unassigned) [Example 73] have IC50 under 9 µM?
Found: No

Lookup: Quick check: does CCc1nn(CCN2CCOCC2)c2c1-c1c(Cl)ccc3c(CCCOc4cccc5ccccc45)c(C(=O)O)n(c13)CCCCN(C)C2 (single isomer, unassigned; enantiomer 2) [Example 47] have IC50 under 9 µM?
Found: No

Lookup: Quick check: does Cc1c2c(nn1C)CN(C)CCCCn1c(C(=O)O)c(CCCOc3cccc4cc(F)ccc34)c3ccc(Cl)c-2c31 (single isomer, unassigned; enantiomer 1) [Example 31] have IC50 under 9 µM?
Found: Yes

Lookup: Quick check: does CCc1nn(C)c2c1-c1c(Cl)ccc3c(CCCOc4cccc5cc(F)ccc45)c(C(=O)O)n(c13)CCCCN(C)C2 (single isomer, unassigned; enantiomer 1) [Example 40] have IC50 under 9 µM?
Found: Yes

Lookup: Quick check: does Cc1c2c(nn1CCCN1CCN(C)CC1)COCCCCn1c(C(=O)O)c(CCCOc3cccc4ccccc34)c3ccc(Cl)c-2c31 (single isomer, unassigned; enantiomer 2) [Example 50] have IC50 under 9 µM?
Found: Yes

---

Tested on: SUDHL10
assay-explanation: Induction of cytotoxicity (Assay 6), SUDHL10
conditions-used: Homo sapiens, SU-DHL10, 5 h, read-out: Cytotox SUDHL10 IC50 (median), SUDHL10 cells, 5 hours, CellTiter-Glo
Can you tell me log10 of IC50 for the items I'm about to list?
// stored as log10 of IC50 expressed in nM

# log10 of IC50 (compound: Cc1c2c(nn1C)COCCCCn1c(C(=O)O)c(CCCOc3cccc4cc(F)ccc34)c3ccc(Cl)c-2c31 (racemic) [Example 14] ) is 2.79

# log10 of IC50 (compound: CCc1nn(CCN2CCOCC2)c2c1-c1c(Cl)ccc3c(CCCOc4cccc5ccccc45)c(C(=O)O)n(c13)C/C=C\CN(C)C2 (racemic) [Example 42] ) is 3.20

# log10 of IC50 (compound: CCc1c2c(nn1C)COCCCCn1c(C(=O)O)c(CCCOc3cccc4cc(F)ccc34)c3ccc(Cl)c-2c31 (racemic) [Example 36] ) is 2.81

# log10 of IC50 (compound: CCc1c2c(nn1C)CCCCCCn1c(C(=O)O)c(CCCOc3cccc4ccccc34)c3ccc(Cl)c-2c31 (racemic) [Example 51] ) is 3.30

# log10 of IC50 (compound: CCc1c2c(nn1C)COCCCCn1c(C(=O)O)c(CCCOc3cccc4ccccc34)c3ccc(Cl)c-2c31 (racemic) [Example 19] ) is 2.64

# log10 of IC50 (compound: Cc1c2c(nn1C)OCCCCCn1c(C(=O)O)c(CCCOc3cccc4cc(F)ccc34)c3ccc(Cl)c-2c31 (single isomer, unassigned; enantiomer 1) [Example 84] ) is 3.18

# log10 of IC50 (compound: CCc1c2c(nn1C)COC/C=C\Cn1c(C(=O)O)c(CCCOc3cccc4ccccc34)c3ccc(Cl)c-2c31 (racemic) [Example 18] ) is 3.11

# log10 of IC50 (compound: Cc1c2c(nn1C)CN(C)CCCCn1c(C(=O)O)c(CCCOc3cccc4cc(F)ccc34)c3ccc(Cl)c-2c31 (racemic) [Example 30] ) is 2.53

# log10 of IC50 (compound: CCc1c2c(nn1C)CN(C)CCCCn1c(C(=O)O)c(CCCOc3cccc4ccccc34)c3ccc(Cl)c-2c31 (racemic) [Example 22] ) is 2.60

# log10 of IC50 (compound: Cc1c2c(nn1C)COCCCCn1c(C(=O)O)c(CCCOc3cccc4cc(F)ccc34)c3ccc(Cl)c-2c31 (single isomer, unassigned; enantiomer 1) [Example 16] ) is 2.82

# log10 of IC50 (compound: CCc1c2c(nn1C)N(CCC1CCOCC1)CCCCCn1c(C(=O)O)c(CCCOc3cccc4cc(F)ccc34)c3ccc(Cl)c-2c31 (racemic) [Example 80] ) is 2.72

# log10 of IC50 (compound: Cc1c2c(nn1C)CN(C)CCCCn1c(C(=O)O)c(CCCOc3cccc4ccccc34)c3ccc(Cl)c-2c31 (single isomer, unassigned; enantiomer 1) [Example 12] ) is 2.15

---

Tested on: HMC-1-8
assay-explanation: Antiproliferation assay 7, HMC-1-8
Assay type: cell-based
conditions-used: 72 h, HMC-1-8 cells, CellTiter-Glo, read-out: Antiproli HMC-1-8 IC50 median
Hi! Could you tag entries with IC50 below 8 µM as yes (1), and those at or above as no (0)? Much appreciated.

Lookup: Quick check: does Cc1c2c(nn1C)N(C)CCCCCn1c(C(=O)O)c(CCCOc3cccc4ccccc34)c3ccc(Cl)c-2c31 (racemic) [Example 71] have IC50 under 8 µM?
Found: no (0)

Lookup: Quick check: does Cc1c2c(nn1C)CN(C)CCCCn1c(C(=O)O)c(CCCOc3cccc4ccccc34)c3ccc(Cl)c-2c31 (single isomer, unassigned; enantiomer 1) [Example 12] have IC50 under 8 µM?
Found: yes (1)

Lookup: Quick check: does Cc1nn(C)c2c1-c1c(Cl)ccc3c(CCCOc4cccc5ccccc45)c(C(=O)O)n(c13)CCCCOC2 (single isomer, unassigned; enantiomer 1) [Example 3] have IC50 under 8 µM?
Found: no (0)

Lookup: Quick check: does CCc1nn(CCN2CCOCC2)c2c1-c1c(Cl)ccc3c(CCCOc4cccc5ccccc45)c(C(=O)O)n(c13)C/C=C\CN(C)C2 (single isomer, unassigned; enantiomer 1) have IC50 under 8 µM?
Found: yes (1)

---

Can you tell me pIC50 for the items I'm about to list?
Test system: HMC-1-8
assay-explanation: Antiproliferation assay 7, HMC-1-8
Type: cell-based
conditions-used: 72 h, HMC-1-8 cells, CellTiter-Glo, read-out: Antiproli HMC-1-8 IC50 median
Interpret pIC50 as the negative base-10 log of the concentration measured in mol/L.

# pIC50 (compound: CCc1c2c(nn1C)CCCCCCn1c(C(=O)O)c(CCCOc3cccc4cc(F)ccc34)c3ccc(Cl)c-2c31 (racemic) ) is 5.66

# pIC50 (compound: CCc1c2c(nn1C)COCCCCn1c(C(=O)O)c(CCCOc3cccc4ccccc34)c3ccc(Cl)c-2c31 (single isomer, unassigned; enantiomer 1) ) is 5.61

# pIC50 (compound: CCc1c2c(nn1C)CN(CC(F)(F)F)CCCCn1c(C(=O)O)c(CCCOc3cccc4cc(F)ccc34)c3ccc(Cl)c-2c31 (racemic) ) is 5.15

# pIC50 (compound: Cc1c2c(nn1C)N(C)CCCCCn1c(C(=O)O)c(CCCOc3cccc4ccccc34)c3ccc(Cl)c-2c31 (single isomer, unassigned) [Example 72] ) is 4.72

# pIC50 (compound: CCc1nn(C)c2c1-c1c(Cl)ccc3c(CCCOc4cccc5cc(F)ccc45)c(C(=O)O)n(c13)CCCCOC2 (single isomer, unassigned; enantiomer 1) ) is 5.69

# pIC50 (compound: CCc1nn(C)c2c1-c1c(Cl)ccc3c(CCCOc4cccc5cc(F)ccc45)c(C(=O)O)n(c13)CCCCN(C)C2 (single isomer, unassigned; enantiomer 1) ) is 6.16

# pIC50 (compound: Cc1nn(C)c2c1-c1c(Cl)ccc3c(CCCOc4cccc5ccccc45)c(C(=O)O)n(c13)CCCCOC2 (racemic) [Example 2] ) is 4.82

# pIC50 (compound: CCc1c2c(nn1C)N(CCC1CCOCC1)CCCCCn1c(C(=O)O)c(CCCOc3cccc4cc(F)ccc34)c3ccc(Cl)c-2c31 (single isomer, unassigned; enantiomer 1) [Example 81] ) is 5.72

# pIC50 (compound: Cc1c2c(nn1C)COCCCCn1c(C(=O)O)c(CCCOc3cccc4cc(F)ccc34)c3ccc(Cl)c-2c31 (single isomer, unassigned; enantiomer 1) ) is 5.90
